# target: human B1R (bradykinin receptor 1) (Homo sapiens, UniProt P46663)
# Construct: expressed in transfected cells; host or cells: CHO K1 cells
# test.protocol: FLIPR Ca2+ assay (Fluo-4) on CHO K1 cells stably transfected with the human B1R gene (hB1R cells): % inhibition at 10 μM / IC50, agonist Lys-Des-Arg9-bradykinin
# Assay type: cell-based
# conditions: human B1R
assay.endpoint: % Inhibition (human B1R) at 10 μM (%)

CN(C(=O)NCc1ccccc1Cl)C1CCc2ccc(C(=O)N3CCC4(CC3)CCN(c3ccncc3)CC4)cc21 (stereo not drawn) = 98
O=C(NC1CCc2ccc(C(=O)N3CCC4(CCN(c5ccncc5)CC4)C3)cc21)c1ccccc1Cl (stereo not drawn) [IND_CC-293] = 100
O=C(Nc1ccc(Cl)c(Cl)c1)NC1CCc2ccc(C(=O)N3CCC4(CCN(c5ccncc5)CC4)C3)cc21 (stereo not drawn) = 91

----------
# target: rat B1R (bradykinin receptor 1) (Rattus norvegicus)
# Construct: expressed in transfected cells; host or cells: CHO K1 cells
# Sequence (P97583 whole entry): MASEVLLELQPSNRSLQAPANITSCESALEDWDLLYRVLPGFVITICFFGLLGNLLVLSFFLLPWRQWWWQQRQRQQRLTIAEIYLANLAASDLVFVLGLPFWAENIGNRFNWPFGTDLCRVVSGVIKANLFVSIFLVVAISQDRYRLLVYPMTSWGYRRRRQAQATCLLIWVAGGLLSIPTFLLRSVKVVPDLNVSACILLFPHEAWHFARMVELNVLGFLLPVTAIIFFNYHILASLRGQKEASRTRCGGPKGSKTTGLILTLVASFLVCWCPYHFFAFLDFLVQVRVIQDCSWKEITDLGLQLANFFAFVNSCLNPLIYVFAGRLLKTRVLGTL
# test.protocol: FLIPR Ca2+ assay (Fluo-4) on CHO K1 cells stably transfected with the B1R gene of the rat (rB1R cells): % inhibition at 10 μM / IC50, agonist Des-Arg9-bradykinin
# Format: cell-based
# conditions: CHO-K1, rat B1R
# Excerpt: The agonistic or antagonistic action of substances can be quantified on the bradykinin receptor 1 (B1R) of the human and rat species with ectopically expressing cell lines (CHO K1 cells) and with the aid of a Ca^2+-sensitive dyestuff (Fluo-4) in a fluorescent imaging plate reader (FLIPR). […] The agonistic or antagonistic action of substances can be determined on the bradykinin receptor 1 (B1R) of the human and rat species with the following assay. […]
assay.endpoint: inhibition at 10 µM (%)

O=C(NC1CCc2ccc(C(=O)N3CCC4(CC3)CCN(c3ccncc3)C4)cc21)c1c(F)cccc1C(F)(F)F (centres unmarked) = 104
COc1cc(C)c(S(=O)(=O)NC2CCc3ccc(C(=O)N4CCC5(CCN(c6ccncc6)CC5)C4)cc32)c(C)c1 (centres unmarked) = 100
Cc1c(CN2CCC3(CC2)CCN(C(=O)c2ccc4c(c2)C(NC(=O)c2c(F)cccc2Cl)CC4)CC3)cnn1C (centres unmarked) = 71
CN(C(=O)c1cc(C(F)(F)F)ccc1Cl)C1CCc2ccc(C(=O)N3CCC4(CC3)CCN(c3ccncc3)CC4)cc21 (centres unmarked) = 103
Cc1ccccc1C(=O)NC1CCc2ccc(C(=O)N3CCC4(CC3)CCN(c3ccncc3)C4)cc21 (centres unmarked) = 106

----------
# target: human B1R (bradykinin receptor 1) (Homo sapiens, UniProt P46663)
# Construct: expressed in transfected cells; host or cells: CHO K1 cells
# Sequence (P46663 1-353): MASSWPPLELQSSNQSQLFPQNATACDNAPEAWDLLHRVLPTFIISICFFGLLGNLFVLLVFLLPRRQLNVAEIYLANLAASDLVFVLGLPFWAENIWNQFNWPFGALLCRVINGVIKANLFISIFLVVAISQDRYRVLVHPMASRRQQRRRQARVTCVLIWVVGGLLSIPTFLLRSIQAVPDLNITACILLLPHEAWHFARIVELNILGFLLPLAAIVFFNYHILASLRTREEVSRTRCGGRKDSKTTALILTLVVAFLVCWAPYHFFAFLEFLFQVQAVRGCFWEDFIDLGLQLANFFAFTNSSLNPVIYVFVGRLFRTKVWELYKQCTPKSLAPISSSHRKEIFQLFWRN
# test.protocol: FLIPR Ca2+ assay (Fluo-4) on CHO K1 cells stably transfected with the human B1R gene (hB1R cells): % inhibition at 10 μM / IC50, agonist Lys-Des-Arg9-bradykinin
# Format: cell-based
# conditions: CHO-K1, human B1R
Counter-ions that a name gives are not always drawn.
Known inhibition at 10 µM of a selection of compounds
assay.endpoint: inhibition at 10 µM

COc1cc(C)c(C(=O)N[C@@H]2CCc3ccc(C(=O)N4CCC5(CCN(c6ccncc6)CC5)C4)cc32)cc1C = 99%
Cc1cc(N2CCC3(CCN(C(=O)c4ccc5c(c4)[C@H](NC(=O)c4ccccc4Cl)CC5)C3)CC2)cc(C)n1 [Example H-111, hydrochloride] = 100%
Cc1cccc(C)c1C(=O)NC1c2cc(C(=O)N3CCC4(CC3)CCN(c3ccncc3)CC4)ccc2CC1(C)C (stereo not shown) = 97%
COc1cc(C)c(S(=O)(=O)N[C@@H]2CCCc3ccc(C(=O)N4CCC5(CC4)CCN(c4ccncc4)CC5)cc32)c(C)c1 = 98%
COc1cc(C)c(S(=O)(=O)NC2CCc3ccc(C(=O)N4CCC5(CC4)CCN(c4ccncc4)CC5)cc32)c(C)c1 (stereo not shown) = 99%
O=C(c1ccc2c(c1)C(NS(=O)(=O)Cc1ccccc1C(F)(F)F)CC2)N1CCC2(CC1)CCN(c1ccncc1)CC2 (stereo not shown) = 98%
O=C(c1ccc2c(c1)C(N1Cc3cccc(Cl)c3C1=O)CC2)N1CCC2(CC1)CCN(c1ccncc1)CC2 (stereo not shown) = 100%

----------
# target: human B1R (bradykinin receptor 1) (Homo sapiens, UniProt P46663)
# Construct: expressed in transfected cells; host or cells: CHO K1 cells
# test.protocol: FLIPR Ca2+ assay (Fluo-4) on CHO K1 cells stably transfected with the human B1R gene (hB1R cells): % inhibition at 10 μM / IC50, agonist Lys-Des-Arg9-bradykinin
# Type: cell-based
# conditions: CHO-K1, human B1R
assay.endpoint: inhibition at 10 µM (%)

CC1(C)CC(NC(=O)c2ccc(F)cc2Cl)c2cc(C(=O)N3CCC4(CC3)CCN(c3ccncc3)CC4)ccc21 (stereo not drawn) [IND_CC-276] = 100
O=C(N[C@H]1CCc2cc(C(=O)N3CCC4(CC3)CCN(c3ccncc3)CC4)ccc21)c1ccccc1Cl [Example H-156] = 24
O=C(N[C@@H]1CCc2ccc(C(=O)N3CCC4(CCC(C(=O)N5CCn6ncnc6C5)CC4)CC3)cc21)c1ccccc1Cl [Example H-97] = 6
Cc1cc(OC(F)(F)F)ccc1C(=O)N[C@@H]1CCc2ccc(C(=O)N3CCC4(CCN(c5ccncc5)CC4)C3)cc21 [Example H-74] = 94
COc1cc(C)c(S(=O)(=O)N[C@H]2CCCc3ccc(C(=O)N4CCC5(CC4)CCN(c4ccncc4)CC5)cc32)c(C)c1 [Example H-19] = 99
CC1(C)Cc2ccc(C(=O)N3CCC4(CC3)CCN(c3ccncc3)CC4)cc2C1NC(=O)c1cccc(Cl)c1Cl (stereo not drawn) [IND_CC-282] = 69
COc1ccc(C(=O)NC2CCc3ccc(C(=O)N4CCC5(CCN(c6ccncc6)CC5)C4)cc32)c(Cl)c1 (stereo not drawn) [IND_CC-247] = 99
O=C(NC1CCc2ccc(C(=O)N3CCC4(CC3)CCN(c3ccncc3)CC4)cc21)c1c(Cl)cccc1Cl (stereo not drawn) [IND_CC-269] = 100
O=C(N[C@@H]1CCc2ccc(C(=O)N3CCC4(CCC(OCCn5ccnc5)CC4)CC3)cc21)c1ccccc1Cl [Example H-120] = 65
CN(C(=O)c1cc(C(F)(F)F)ccc1Cl)C1CCc2ccc(C(=O)N3CCC4(CC3)CCN(c3ccncc3)CC4)cc21 (stereo not drawn) [IND_CC-202] = 86
O=C(N[C@@H]1CCCc2cc(F)c(C(=O)N3CCC4(CC3)CCN(c3ccncc3)CC4)cc21)c1ccccc1Cl [Example H-88] = 100
Cc1ccc2n1C(=O)N([C@@H]1CCc3ccc(C(=O)N4CCC5(CCN(c6ccncc6)CC5)C4)cc31)C2 [Example H-134] = 99

----------
# target: rat B1R (bradykinin receptor 1) (Rattus norvegicus)
# Construct: expressed in transfected cells; host or cells: CHO K1 cells
# test.protocol: FLIPR Ca2+ assay (Fluo-4) on CHO K1 cells stably transfected with the B1R gene of the rat (rB1R cells): % inhibition at 10 μM / IC50, agonist Des-Arg9-bradykinin
# Format: cell-based
# conditions: CHO-K1, rat B1R
assay.endpoint: inhibition at 10 µM (%)

COc1cccc(F)c1CN1CCC2(CC1)CCN(C(=O)c1ccc3c(c1)C(NC(=O)c1ccccc1Cl)CC3)CC2 (stereo not shown) = 90
COc1cc(C)c(C(=O)NC2CCc3ccc(C(=O)N4CCC5(CC4)CCN(c4cccnc4)CC5)cc32)c(C)c1 (stereo not shown) = 100
Cn1nnc2cc(CN3CCC4(CC3)CCN(C(=O)c3ccc5c(c3)C(NC(=O)c3cccc(Cl)c3Cl)CC5)C4)ccc21 (stereo not shown) = 78
O=C(NC1CCc2ccc(C(=O)N3CCC4(CCN(Cc5ccc[nH]5)CC4)CC3)cc21)c1c(F)cccc1Cl (stereo not shown) = 102
CN(C)c1ccc(NC(=O)N2CCC3(CC2)CCN(C(=O)c2ccc4c(c2)C(NC(=O)c2ccccc2Cl)CC4)CC3)cc1 (stereo not shown) = 92
CCC(C)C(=O)N(C)C1CCc2ccc(C(=O)N3CCC4(CC3)CCN(c3ccncc3)CC4)cc21 (stereo not shown) = 101
CC(C)C(=O)NC1CCc2ccc(C(=O)N3CCC4(CCN(c5ccncc5)CC4)C3)cc21 (stereo not shown) = 101
O=C(N[C@H]1CCc2c(C(=O)N3CCC4(CCN(c5ccncc5)CC4)C3)cccc21)c1ccccc1Cl = 104
Cc1cccc(Cl)c1S(=O)(=O)N(C)C1CCc2ccc(C(=O)N3CCC4(CC3)CCN(c3ccncc3)CC4)cc21 (stereo not shown) = 97
CCCC(=O)N(C)C1CCc2ccc(C(=O)N3CCC4(CC3)CCN(c3ccncc3)CC4)cc21 (stereo not shown) = 97
CN(C(=O)c1ccccc1Cl)C1CCc2ccc(C(=O)N3CCC4(CCN(Cc5ccc(F)c(F)c5)CC4)C3)cc21 (stereo not shown) = 60
N#Cc1cc(S(=O)(=O)N2CCC3(CCN(C(=O)c4ccc5c(c4)C(NC(=O)c4ccccc4Cl)CC5)CC3)CC2)ccc1F (stereo not shown) = 103
O=C(NC1CCc2ccc(C(=O)N3CCC4(CCN(c5ccncc5)CC4)C3)cc21)c1c(Cl)cccc1Cl (stereo not shown) = 104
Cn1cccc1CN1CCC2(CC1)CCN(C(=O)c1ccc3c(c1)C(N(C(=O)c1ccccc1Cl)C1CC1)CC3)C2 (stereo not shown) = 53
CN(C1CCc2ccc(C(=O)N3CCC4(CC3)CCN(c3ccncc3)CC4)cc21)S(=O)(=O)c1ccccc1Cl (stereo not shown) = 102
O=C(c1ccc2c(c1)C(NS(=O)(=O)c1c(Cl)cc(Cl)cc1Cl)CC2)N1CCC2(CCN(c3ccncc3)CC2)C1 (stereo not shown) = 101
